Data provenance: PubChem BioAssay AID1159580

Each entry below carries its recorded normalized growth.
Assay Name: chemical genetic growth profiling, strain panel (AID 1159580);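 further: tested at 20 µM; growth read once vehicle control cultures reached saturation at 30 °C; 1 = growth at the plate median or of vehicle wells; lower values mean less growth of the strain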
Recorded Conditions: S. cerevisiae deletion strains, growth OD, locus YDR297W, strain sur2, hits give low values
Out of some 5,500 compounds screened, about 2,000 (36%) were called active. Roughly 18% stayed inconclusive and do not appear here. This is one part of the list.
When you answer, write just the number.

A selection of reference data follows.
[
  {
    "Molecule": "Clc1ccc(CO/N=C(/Cn2ccnc2)c2ccc(Cl)cc2Cl)c(Cl)c1",
    "normalized growth": 0.0626
  },
  {
    "Molecule": "CCC(=O)OC1[C@@H]2CC3=C4CC(=O)O[C@@H](c5ccoc5)[C@]4(C)CCC3[C@@](C)(C2=O)[C@@H](CC(=O)OC)C1(C)C (some centres undefined)",
    "normalized growth": 0.994
  },
  {
    "Molecule": "O=C(O)C1CCCNC1 (centres undefined)",
    "normalized growth": 1.02
  },
  {
    "Molecule": "O=c1oc2ccccc2cc1O",
    "normalized growth": 0.989
  },
  {
    "Molecule": "Cc1oncc1C(=O)Nc1ccc(C(F)(F)F)cc1",
    "normalized growth": 0.91
  },
  {
    "Molecule": "Clc1ccc(COC(Cn2ccnc2)c2ccc(Cl)cc2Cl)cc1 (centres undefined)",
    "normalized growth": 0.0541
  }
]

Need normalized growth, item NCC[C@@H](O)C(=O)N[C@@H]1C[C@H](N)[C@@H](O[C@H]2O[C@H](CN)[C@@H](O)[C@H](O)[C@H]2O)[C@H](O)[C@H]1O[C@H]1O[C@H](CO)[C@@H](O)[C@H](N)C1O (some centres undefined)
1.03

Now the molecule NC(=O)NC1NC(=O)NC1=O (centres undefined)
1.01

Now the molecule COc1ccc(CCC(=O)c2c(O)cc(O[C@@H]3O[C@H](CO)C(O)[C@H](O)C3O[C@@H]3O[C@@H](C)[C@H](O)[C@@H](O)[C@H]3O)cc2O)cc1O (some centres undefined)
1.02

* * *

Each entry below carries its recorded normalized growth.
Assay Name: chemical genetic growth profiling, strain panel (AID 1159580);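 further: tested at 20 µM; growth read once vehicle control cultures reached saturation at 30 °C; 1 = growth at the plate median or of vehicle wells; lower values mean less growth of the strain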
Recorded Conditions: S. cerevisiae deletion strains, growth OD, locus YPR119W, strain clb2, hits give low values
Hit rate of the full screen: of about 5,500 compounds, about 2,000 (36%) were called active. Inconclusive results (about 18%) are left out. The list shows a part of the results.
When you answer, write just the number.

[
  {
    "Compound": "COc1ccc2c(c1)OCC(Cc1ccc(OC)c(OC(C)=O)c1)C2=O (stereo not given)",
    "Reported Measurement": 0.995
  },
  {
    "Compound": "COC1=CC(=O)OC(CCc2ccc(OC)c(OC)c2)C1 (stereo not given)",
    "Reported Measurement": 1.01
  },
  {
    "Compound": "CC(=O)N[C@@H](CCC(=O)O)C(=O)O",
    "Reported Measurement": 1
  },
  {
    "Compound": "COc1ccc2c(c1)OCC(Cc1ccc(OC)c(OC)c1)C2=O (stereo not given)",
    "Reported Measurement": 0.98
  }
]

Let's switch to this compound now.
Need normalized growth, item CCCCCCCCCCCC(=O)OCC(COP(=O)(O)OCC(O)COP(=O)(O)OCC(COC(=O)CCCCCCCCCCC)OC(=O)CCCCCCCCCCC)OC(=O)CCCCCCCCCCC (stereo not given)
1.03
